In this section we review reported inhibition values for a set of compounds.
TESTED ON: Non-receptor tyrosine-protein kinase TYK2 (Homo sapiens) (UniProt P29597)
Sequence (P29597 whole entry): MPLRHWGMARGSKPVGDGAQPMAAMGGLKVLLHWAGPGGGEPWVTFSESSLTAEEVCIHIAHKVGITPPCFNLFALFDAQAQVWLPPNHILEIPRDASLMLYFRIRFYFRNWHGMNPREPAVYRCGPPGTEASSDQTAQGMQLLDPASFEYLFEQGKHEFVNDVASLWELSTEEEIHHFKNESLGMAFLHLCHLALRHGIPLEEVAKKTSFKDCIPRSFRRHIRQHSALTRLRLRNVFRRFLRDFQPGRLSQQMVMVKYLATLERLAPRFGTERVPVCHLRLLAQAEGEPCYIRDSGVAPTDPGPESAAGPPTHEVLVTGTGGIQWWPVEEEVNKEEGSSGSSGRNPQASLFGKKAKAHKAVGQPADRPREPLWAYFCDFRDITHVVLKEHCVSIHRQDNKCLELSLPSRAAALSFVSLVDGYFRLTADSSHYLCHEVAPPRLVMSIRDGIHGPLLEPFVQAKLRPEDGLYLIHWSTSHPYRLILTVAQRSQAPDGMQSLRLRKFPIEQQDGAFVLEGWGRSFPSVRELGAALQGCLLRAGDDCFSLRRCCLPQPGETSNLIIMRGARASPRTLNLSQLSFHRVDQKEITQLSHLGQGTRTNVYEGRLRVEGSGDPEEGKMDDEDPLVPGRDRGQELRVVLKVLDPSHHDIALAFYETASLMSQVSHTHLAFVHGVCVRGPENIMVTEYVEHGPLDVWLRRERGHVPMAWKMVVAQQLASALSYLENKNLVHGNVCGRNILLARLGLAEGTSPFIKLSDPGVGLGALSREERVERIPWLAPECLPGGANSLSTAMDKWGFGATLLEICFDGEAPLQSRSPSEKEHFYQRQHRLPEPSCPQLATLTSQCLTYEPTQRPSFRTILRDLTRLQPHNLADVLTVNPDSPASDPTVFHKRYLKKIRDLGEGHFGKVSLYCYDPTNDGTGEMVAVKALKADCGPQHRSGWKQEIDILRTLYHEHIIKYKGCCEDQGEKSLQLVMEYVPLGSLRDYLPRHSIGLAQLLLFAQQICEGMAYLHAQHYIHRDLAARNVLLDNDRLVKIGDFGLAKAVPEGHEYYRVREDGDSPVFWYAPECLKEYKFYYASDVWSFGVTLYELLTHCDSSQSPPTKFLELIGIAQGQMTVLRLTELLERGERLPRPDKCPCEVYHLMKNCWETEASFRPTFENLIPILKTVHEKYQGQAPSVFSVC
ASSAY CONTEXT: at 0.1 µM
Lab book: enter the figure in %, no units written.

{"COMPOUND": "NS(=O)(=O)c1ccc(Nc2ncc(-c3ccccc3)o2)cc1", "UNITS OF MEASURE": "%", "inhibition": -1.15}
{"COMPOUND": "CCCN(CCS(C)(=O)=O)Cc1ccc(-c2ccc3ncnc(Nc4ccc(OCc5cccc(F)c5)c(Cl)c4)c3c2)o1", "UNITS OF MEASURE": "%", "inhibition": -3.81}
{"COMPOUND": "c1ccc(-c2nc3n(c2-c2ccc4c(c2)OCO4)CCC3)nc1", "UNITS OF MEASURE": "%", "inhibition": -1.06}
{"COMPOUND": "Fc1ccc(-c2nn3ccccc3c2-c2ccncc2)cc1", "UNITS OF MEASURE": "%", "inhibition": 0.8}

Request: // map CC(=O)Nc1cccc(C#Cc2cncnc2Nc2ccc(OCc3cccc(F)c3)c(Cl)c2)c1 to recorded inhibition (system: Non-receptor tyrosine-protein kinase TYK2 (Homo sapiens) (UniProt P29597));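 also: each value is a mean of the inhibition readings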
Result: 1.05
